# TARGET SYSTEM: human TAS1R2-S212G (subunit alone) (Homo sapiens, UniProt Q8TE23, S212G)
# Sequence (Q8TE23 20-839 S212G): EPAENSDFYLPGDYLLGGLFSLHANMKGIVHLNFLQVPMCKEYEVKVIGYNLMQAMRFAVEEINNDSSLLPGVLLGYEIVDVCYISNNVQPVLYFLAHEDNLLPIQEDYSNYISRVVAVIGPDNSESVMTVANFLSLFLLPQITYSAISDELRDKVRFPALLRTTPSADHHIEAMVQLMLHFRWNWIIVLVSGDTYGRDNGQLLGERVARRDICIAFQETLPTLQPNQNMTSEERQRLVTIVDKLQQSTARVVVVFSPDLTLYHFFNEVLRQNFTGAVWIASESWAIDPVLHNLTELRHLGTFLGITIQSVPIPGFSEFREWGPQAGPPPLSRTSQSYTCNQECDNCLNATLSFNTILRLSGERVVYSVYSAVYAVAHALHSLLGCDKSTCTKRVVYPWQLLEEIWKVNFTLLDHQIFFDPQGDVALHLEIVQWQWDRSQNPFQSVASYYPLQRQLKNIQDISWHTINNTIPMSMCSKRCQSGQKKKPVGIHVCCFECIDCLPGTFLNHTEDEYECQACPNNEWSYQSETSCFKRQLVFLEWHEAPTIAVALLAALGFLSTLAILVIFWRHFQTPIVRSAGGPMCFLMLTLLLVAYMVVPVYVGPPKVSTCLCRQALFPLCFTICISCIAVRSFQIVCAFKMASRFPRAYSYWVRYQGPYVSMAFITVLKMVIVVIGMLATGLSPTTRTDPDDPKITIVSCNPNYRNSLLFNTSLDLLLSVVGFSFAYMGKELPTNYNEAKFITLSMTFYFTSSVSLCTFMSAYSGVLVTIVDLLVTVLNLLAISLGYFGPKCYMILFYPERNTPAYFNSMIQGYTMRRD
# METHOD NOTES: Calcium mobilisation assay, TAS1R2-S212G subunit alone
OBSERVABLE: pEC50
One number for each entry, as −log10 of the molar value.

Fill in pEC50 for record C=C(C)[C@@H]1CC=C(/C=N/O)CC1 3.75

====

# TARGET SYSTEM: human TAS1R2-WT/TAS1R3-G832R (Homo sapiens, UniProt Q7RTX0+Q8TE23, G832R)
# Construct: expressed in transfected cells; host or cells: HEK293T stably expressing Gα16gust44
# Sequence (Q8TE23 20-839): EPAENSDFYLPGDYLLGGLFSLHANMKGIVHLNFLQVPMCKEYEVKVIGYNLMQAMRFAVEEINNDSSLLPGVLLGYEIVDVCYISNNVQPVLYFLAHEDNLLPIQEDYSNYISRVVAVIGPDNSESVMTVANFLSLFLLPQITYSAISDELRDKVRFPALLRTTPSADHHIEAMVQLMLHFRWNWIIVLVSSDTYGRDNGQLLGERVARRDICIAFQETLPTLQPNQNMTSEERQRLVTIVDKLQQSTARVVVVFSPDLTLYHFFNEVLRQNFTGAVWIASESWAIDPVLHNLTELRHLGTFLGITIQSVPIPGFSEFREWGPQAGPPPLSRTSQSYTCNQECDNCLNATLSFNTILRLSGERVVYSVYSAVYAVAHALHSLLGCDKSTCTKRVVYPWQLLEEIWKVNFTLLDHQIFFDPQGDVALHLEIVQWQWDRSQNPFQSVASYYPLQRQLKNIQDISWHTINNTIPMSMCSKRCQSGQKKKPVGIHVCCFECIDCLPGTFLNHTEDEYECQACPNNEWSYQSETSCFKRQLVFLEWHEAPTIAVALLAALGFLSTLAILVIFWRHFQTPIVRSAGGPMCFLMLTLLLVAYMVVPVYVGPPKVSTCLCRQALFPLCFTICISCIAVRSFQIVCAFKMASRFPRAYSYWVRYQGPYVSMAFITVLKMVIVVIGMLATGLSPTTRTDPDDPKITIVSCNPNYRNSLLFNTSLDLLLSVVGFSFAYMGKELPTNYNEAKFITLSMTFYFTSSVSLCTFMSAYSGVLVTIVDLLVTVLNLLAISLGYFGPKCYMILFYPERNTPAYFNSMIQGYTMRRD
# Sequence (Q7RTX0 21-852 G832R): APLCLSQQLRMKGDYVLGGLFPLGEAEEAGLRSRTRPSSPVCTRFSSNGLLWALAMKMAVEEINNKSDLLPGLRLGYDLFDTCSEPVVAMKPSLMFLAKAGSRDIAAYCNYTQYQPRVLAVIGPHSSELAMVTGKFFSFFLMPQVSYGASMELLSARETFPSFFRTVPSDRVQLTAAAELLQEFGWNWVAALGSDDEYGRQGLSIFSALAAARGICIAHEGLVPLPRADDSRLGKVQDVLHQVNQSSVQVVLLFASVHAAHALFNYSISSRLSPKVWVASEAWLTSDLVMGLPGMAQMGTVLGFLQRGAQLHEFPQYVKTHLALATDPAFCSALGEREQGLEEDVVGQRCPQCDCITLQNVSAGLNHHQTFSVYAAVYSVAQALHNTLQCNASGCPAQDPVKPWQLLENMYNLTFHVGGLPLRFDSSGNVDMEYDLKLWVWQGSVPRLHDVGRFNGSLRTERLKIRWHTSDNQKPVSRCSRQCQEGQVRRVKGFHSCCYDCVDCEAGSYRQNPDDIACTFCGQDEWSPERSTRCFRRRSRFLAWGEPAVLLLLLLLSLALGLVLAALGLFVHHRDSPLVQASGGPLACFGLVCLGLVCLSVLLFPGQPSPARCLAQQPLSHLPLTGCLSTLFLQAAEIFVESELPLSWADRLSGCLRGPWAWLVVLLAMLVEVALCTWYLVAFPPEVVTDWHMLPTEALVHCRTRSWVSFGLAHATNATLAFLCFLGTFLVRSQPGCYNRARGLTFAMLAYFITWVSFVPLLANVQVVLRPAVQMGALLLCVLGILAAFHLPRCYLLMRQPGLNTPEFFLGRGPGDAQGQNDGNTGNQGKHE
# METHOD NOTES: Calcium mobilisation assay, TAS1R2-WT with TAS1R3 variant G832R
# Format: cell-based
Please go through the items and note down their R1 = Variant EC50/WT EC50.
Answers are plain numbers.

Use these answered entries as a reference point.
OC[C@H]1O[C@H](O[C@]2(CCl)O[C@H](CCl)[C@@H](O)[C@@H]2O)[C@H](O)[C@@H](O)[C@H]1Cl [Sucralose] : 0.7
C=C(C)[C@@H]1CC=C(/C=N/O)CC1 [Perillartine, perillartine] : 0.5
COc1ccc(CCC(=O)c2c(O)cc(O[C@@H]3O[C@H](CO)[C@@H](O)[C@H](O)[C@H]3O[C@@H]3O[C@@H](C)[C@H](O)[C@@H](O)[C@H]3O)cc2O)cc1O [NHDC, neohesperidin dihydrochalcone] : 0.6
CC1=CC(=O)NS(=O)(=O)O1 [Acesulfame K, acesulfame K] : 0.8
COC(=O)[C@H](Cc1ccccc1)NC(=O)[C@H](CC(=O)O)NCCC(C)(C)C [Neotame] : 0.7
C=C1C[C@@]23CC[C@H]4[C@@](C)(CCC[C@@]4(C)C(=O)O[C@@H]4O[C@H](CO)[C@@H](O)[C@H](O[C@@H]5O[C@H](CO)[C@@H](O)[C@H](O)[C@H]5O)[C@H]4O[C@@H]4O[C@H](CO)[C@@H](O)[C@H](O)[C@H]4O)[C@@H]2CC[C@]1(O[C@@H]1O[C@H](CO)[C@@H](O)[C@H](O[C@@H]2O[C@H](CO)[C@@H](O)[C@H](O)[C@H]2O)[C@H]1O[C@@H]1O[C@H](CO)[C@@H](O)[C@H](O)[C@H]1O)C3 [Rebaudioside M, rebaudioside M] : 0.6

// below: R1 = Variant EC50/WT EC50 requested for another molecule
Fill in R1 = Variant EC50/WT EC50 for record C[C@H](CC[C@@H](O[C@@H]1O[C@H](CO[C@@H]2O[C@H](CO)[C@@H](O)[C@H](O)[C@H]2O)[C@@H](O)[C@H](O)[C@H]1O[C@@H]1O[C@H](CO)[C@@H](O)[C@H](O)[C@H]1O)C(C)(C)O)[C@H]1CC[C@@]2(C)[C@@H]3CC=C4[C@@H](CC[C@H](O[C@@H]5O[C@H](CO[C@@H]6O[C@H](CO)[C@@H](O)[C@H](O)[C@H]6O)[C@@H](O)[C@H](O)[C@H]5O)C4(C)C)[C@]3(C)[C@H](O)C[C@]12C [Mogroside V, mogroside V] 0.6
